The values you see were collected from paper PMC9268166.

Exercise: for every item that follows, state its recorded logkwCN.
Method Notes: Cyanopropyl (CN) chromatography, logkw from two gradients with DryLab
Type: physicochemical
Measurement Conditions: pH 7.4, 40 °C; retention factor extrapolated to 0% organic modifier

• Cc1cc(S(=O)(=O)Nc2nnc(Cc3ccccc3)c(=O)[nH]2)c(SCc2cc3c(cc2Cl)OCO3)cc1Cl = 2.13
• O=C(Nc1ccc(Cl)cc1)c1cc(S(=O)(=O)Nc2nncc(-c3ccc(C(F)(F)F)cc3)n2)c(SCc2ccccc2)cc1Cl = 2.64
• COc1ccc(NC(=O)c2cc(S(=O)(=O)Nc3nncc(-c4ccc(OC)cc4)n3)c(SCc3ccccc3)cc2Cl)cc1 = 2.21
• Cc1cc(S(=O)(=O)NC(=O)C=Cc2ccccc2)c(SCc2cccc3ccccc23)cc1Cl = 2.31
• Cc1cc(S(=O)(=O)Nc2nncc(-c3ccc(C(F)(F)F)cc3)n2)c(SCc2ccc(C(F)(F)F)cc2)cc1Cl = 2.11

Fill in logkwCN for each of the 3 molecules listed.
1. Cc1cc(S(=O)(=O)Nc2nncc(-c3cccc(F)c3)n2)c(SCc2cccc3ccccc23)cc1Cl
2. COc1cc(-c2cnnc(NS(=O)(=O)c3cc(C(=O)Nc4ccc(C)cc4)c(Cl)cc3SCc3ccccc3)n2)cc(OC)c1OC
3. COc1ccc(-c2cnnc(NS(=O)(=O)c3cc(C)c(Cl)cc3SCc3ccc(C(F)(F)F)cc3)n2)cc1

[2.36, 2.22, 2.33]

# return logkwCN for each item in the list
1. COc1ccc(-c2cnnc(NS(=O)(=O)c3cc(C(=O)Nc4ccc(C)cc4)c(Cl)cc3SCc3ccccc3)n2)cc1
2. COc1ccc(-c2cnnc(NS(=O)(=O)c3cc(C(=O)Nc4ccc(Cl)cc4)c(Cl)cc3SCc3ccccc3)n2)cc1
3. Cc1cc(S(=O)(=O)Nc2nnc(-c3ccccc3)c(=O)[nH]2)c(SCc2ccc(C(F)(F)F)cc2)cc1Cl
4. Cc1ccnc(NS(=O)(=O)c2ccc(-n3cccc3)cc2)n1
5. Cc1cc(S(=O)(=O)Nc2nncc(-c3cccc(F)c3)n2)c(SCc2ccccc2)cc1Cl
6. O=S(=O)(Nc1cccc2nsnc12)c1ccc(-n2cccc2)cc1
7. Cc1cc(S(=O)(=O)Nc2nnc(-c3ccccc3)c(=O)[nH]2)c(SCc2cccc3ccccc23)cc1Cl

[2.36, 2.47, 2.01, 1.58, 2.04, 2.30, 2.25]
